Assay: soluble on expression in E. coli; label from the status in PepcDB or PDB records
value_type: soluble on expression in E. coli

The following sequences have reported results that may help.
- MGHHHHHHSHMHAPLSLLKQMLKEHQIDTEKAVTFEEYIAMRLKLQELMGKFASIGEWDLYQKAADLMMHIGIQWMK: not soluble
- MGSDKIHHHHHHMKFSEPLVEGRLIRRYKRFLADVQLPDGTEVTAHCPNTGSMLGCQPENARVWLSRSDNPKRKLQYTWELVETEPGVLACVNTVRPNAQARAAIEAGVVQSLAGYAQCRAEVRYGSEKSRIDLLLSGHDHDPDAWVEVKNVTLAEGGEGYFPDAVTERGQKHLRELMAQVQNGDRAVLFFVVNHTGIEQVRPADHIDARYGQLLREACEAGVEVIAYRAALAGEDGDPSGRLELVEEVPVSLEP: not soluble
- MAHHHHHHMKGDAEVVDIGSEVLSVTFSNSGRRLAVLTMRQEISVYETVVPTEPIIIKTFQTSFDAAGGWNKTVGPRSANYNARFNVIAFSPEGEKIVAGGDSKWIVMYHATQGYMLKKWPVTTNQDVQGAEEQYQWRQMTEAGHVDDIDVDDADIHLRRGKIMEMPGSRHRHFATGKRQTALTARTMDLAFSCTGTEFVAATTDGLLMFSTRVARPKFQPLQLSANITTQQVRDQLDRGEPVMALMGAMKLGDKMLGVECLRRMPRDAIPVAVSSVPSVLFPLLVQWVSTEVEESRGIEQALLWAQSLMLHSNECTGGFAQERSAVIPALKVLQRGLQQHRALTDLAKENYFSLRYIIDMTKMQKDILQPAATVE: not soluble
- MSLGYNFHLSDMQAQLEQQAAEEETLKQQFSTKAFQAANLEAYKAQMKEMEESFGALLRQLPSDTEVPGLLEDITRTGLGSGLEFEEIKLLPEVAQQFYIELPIQISVVGGYHDLATFVSGVSSLPRIVTLHDFEIKPVAPGSTSKLRMSILAKTYRYNDKGLKKEGHHHHHH: soluble
- MGHERDWSLVQVALTDITARKKAEAYLEYLGKHDVLTKLHNRAFYSDELNRLERSALRPVSAIVIDLNGLKEANDKLGHDAGDALLRRVGEVLNGVVTAPNHAARIGGDEFAILLPGADKQVAAAMVDTVYELLKINNQFYSSAPLSLSLGVATTEAGETMESLVRRADMNMYEQKNALEHHHHHH: soluble

*Q* What soluble on expression in E. coli value was documented for this sequence, "MGSDKIHHHHHHMSLTNVLFLAEELRVGGAETYFYKIENKIDLKKINFYTAAVNGRCFDKLNNKHMYFEYEKGLFSKIKTIKKIVISKNINVIHANSLRLAIISSIVKKLYKKDLKIVYTKHNLTILEKIHTKLFSAFVNKNVDIVLAVCNKDRDNMISIGVSEEKVKVIPNSIDLKHFKFNSKYLRDAGKDFKVGMLSRLSKEKNHEFFLDIAEKADFRALIGGDGPLREEINNRIEKSNLKKKVKMLGNIENSYEFLSSVDVMLLVSTREIFPMTLLEAMAVGTIVISVDIGGIRDCVINDKTGYVIDDYQSEKFITKISDILSDYDKNKELISAARELVENSFNLDITIDELQRLYGEVGL" ?
*A* not soluble

*Q* What soluble on expression in E. coli value was documented for this sequence, "RGRLKVFLGAAPGVGKTYAMLQAAHAQLRQGVRVMAGVVETHGRAETEALLNGLPQQPLLRTEYRGMTLEEMDLDALLKAAPSLVLVDELAHTNAPGSRHTKRWQDIQELLAAGIDVYTTVNVQHLESLNDQVRGITGVQVRETLPDWVLQEAFDLVLIDLPPRELLERLRDGKVYVPEQARAAIDAFFTQTNLTALREMAMQTAAAQVDNDLAQGYRQLGQSAP" ?
*A* soluble
